Test system: NCI/ADR-RES ovarian
Assay Remarks: NCI-60 one-dose screen, 48 h (100 = growth as untreated, 0 = no growth, -100 = all killed)
Particulars: 10 µM unless noted
This is part of a sample that, as a whole, favours compounds with a hit. Of some 83,000 tested, about 20% had one in any assay. Activity calls are given as the source filed them. Rule for the calls: active = growth percent below 10; inactive = the rest.
Each record here notes measured growth.

# example entries with known answers
Molecule Smiles	growth
CCNC(=S)NNC(=O)c1cc2ccc1CCc1ccc(cc1)CC2	101% (inactive)
CN1C2CCC1CN(c1cnc(C(=O)Nc3cc(F)cc4cccnc34)cn1)C2	42.1% (inactive)
NC(=O)c1ccc[n+](CC(=O)N2CCN(c3cc4c(cc3F)c(=O)c(C(=O)O)cn4C3CC3)CC2)c1	99.8% (inactive)
CC1(C)CN(Cc2ccccc2)CCN1Cc1ccccc1	105% (inactive)
c1ccc(Cn2nc3c(c2-c2ccccc2)-c2oncc2CC3)cc1	84.1% (inactive)

May I ask what growth has been recorded for `CCc1c(Nc2ccc(C)cc2)[nH]c(N)nc1=S` ? 105% (inactive)

May I ask what growth has been recorded for `COc1ccc(-c2nc(N=Nc3c(O)[nH]c4ccccc34)nc(N3CCOCC3)c2C#N)cc1` ? 59.7% (inactive)

May I ask what growth has been recorded for `COc1cccc(CCC(=O)c2cc3c(N)c(C(=O)Nc4cccc(Cl)c4C)sc3nc2C)c1` ? 10.7% (inactive)

====

Each record here notes measured growth.
Tested on: SW-620 colon
Assay Remarks: NCI-60 one-dose screen, 48 h (100 = growth as untreated, 0 = no growth, -100 = all killed)
Particulars: 10 µM unless noted
This is part of a sample that, as a whole, favours compounds with a hit. Of some 83,000 tested, about 20% had one in any assay.
Hi! Could you send only the number? It should be in %, unit omitted.

Molecule	Output Unit	growth
O=S(=O)(NCCNc1nccc(-c2c(-c3cccc(F)c3)nc3occn23)n1)c1cccc2ccccc12	%	72.1
COc1ccc(/C=N/NC(=O)c2cccc3cc[nH]c23)cc1O	%	29.8
COc1cc(/C=C/C(=O)c2c(C)oc3nc[nH]c(=O)c23)ccc1O	%	100
C=C1C(=O)O[C@H]2[C@H]1CC/C(COC(=O)CCCCCC(=O)OC/C1=C/CC[C@@]3(C)O[C@H]3[C@H]3OC(=O)C(=C)[C@@H]3CC1)=C\CC[C@@]1(C)O[C@@H]21	%	8.05
CN1CCN(CCCOc2ccc3ncnc(Nc4ccc(Oc5cccc(C(F)(F)F)c5)c(Cl)c4)c3c2)CC1	%	-71.6

May I ask what growth has been recorded for `COc1ccc2nc(N=Nc3c(O)ccc4ccccc34)sc2c1` ? 35.8

May I ask what growth has been recorded for `CC1(C)[C@H](O)CC[C@]2(C)[C@@H]1CC[C@@]13C[C@@H](CC[C@H]12)[C@@](O)(CO)C3` ? 108

May I ask what growth has been recorded for `Cc1cc2cc3cc(C)c(N)cc3[n+](C)c2cc1N` ? 9.45

May I ask what growth has been recorded for `O=C(CN1CCOCC1)Nc1ccc2ncnc(Nc3ccc(Oc4cccc(C(F)(F)F)c4)c(Cl)c3)c2c1` ? 82.2

May I ask what growth has been recorded for `O=CNc1cc(Cl)cc(Cl)c1` ? 103

====

Tested on: NCI-H460 lung
Assay Remarks: NCI-60 one-dose screen, 48 h
Particulars: 10 µM unless noted
About 83,000 compounds went through this panel and 20% of them were active in at least one assay; those are over-represented in the sample as a whole. The source made the active and inactive calls. Rule for the calls: active = growth percent below 10; inactive = the rest.
Choose the fitting class; nothing outside T (active), F (inactive) is accepted.

Before answering, review these 2 worked examples.
Molecule	Cat
C1=C2CNCC3=Cc4ccc5ccccc5c4OC23Oc2c1ccc1ccccc21	F
CN1C2CCC1CN(c1cnc(C(=O)Nc3cc(F)cc4cccnc34)cn1)C2	F

Could you now consider this next molecule?
// return assay outcome for COc1ccc(C(O)c2cc3c(N)c(C(=O)Nc4ccccc4)sc3nc2C)cc1 (stereo not drawn) T

====

System: SK-MEL-2 melanoma
Assay Remarks: NCI-60 one-dose screen, 48 h (100 = growth as untreated, 0 = no growth, -100 = all killed)
Particulars: 10 µM unless noted
Compounds without any hit were thinned out: in the full panel of roughly 83,000, 20% have a hit.
Readout Name: growth (%)
Hi! Could you send only the number? It should be in %, unit omitted.

# example entries with known answers
Compound	Measured Value
CN1CCN(c2ccc(NC3=C(Cl)C(=O)c4ncccc4C3=O)cc2C#N)CC1	78.8
NC(=O)c1cccc(-c2cc(C(N)=O)ccc2Cl)c1	34.5
NC(=S)N/N=C/c1ccc(OC(=O)COc2cc(Cl)c(Cl)cc2Cl)cn1	59.1
O=C(CCN1CCCC1)Nc1ccc2c(NCc3ccc(F)cc3)c3ccccc3nc2c1	-5.55

May I ask what growth has been recorded for `O=S(=O)(NCCNc1nccc(-c2c(-c3ccc(F)c(O)c3)nc3sccn23)n1)c1ccccc1` ? 12.7

May I ask what growth has been recorded for COc1ccccc1/C=N/NC1=NC2C(N1)N(C)C(=O)N2C (stereo unspecified) ? 104

====

Test system: LOX IMVI melanoma
Assay Remarks: NCI-60 one-dose screen, 48 h
Particulars: 10 µM unless noted
The panel holds about 83,000 compounds, 20% with a hit somewhere; the sample as a whole holds those more often. Active and inactive are the calls of the source. Rule for the calls: active = growth percent below 10; inactive = the rest.
Choose the fitting class; nothing outside True for active, False for inactive is accepted.

Before answering, review these 3 worked examples.
Compound	Cat
Nc1nnc2cc(Cl)ccc2n1	False
CC(=O)N1N=C(c2cccc(Nc3ccncc3)c2)CC1c1ccccc1 (stereo unspecified)	False
CC(C)C1C2=C(NCCN1C(=O)Cc1ccccc1)C(C)(C)N(Cc1ccccc1)C2=O (stereo unspecified)	False

// return assay outcome for `CCCCCCCCOc1ccc(/C=N/Nc2cc(C)nc3ccc(Cl)cc23)cc1` True

// return assay outcome for `CS(=O)(=O)Nc1cc(-c2ccc3ncnc(Nc4ccc5[nH]ncc5c4)c3c2)cnc1Cl` False

// return assay outcome for `Nc1c(C(=O)Nc2cccc3ccncc23)sc2nc3c(cc12)C(=O)CCC3` False

// return assay outcome for `Cc1ccc2[nH]c(=O)cc(-n3nncc3COc3ccc(C=O)cc3)c2c1` False

// return assay outcome for `CN1CCN(c2c(F)cc(NC3=C(Cl)C(=O)c4ncccc4C3=O)cc2F)CC1` True

// return assay outcome for `COc1ccc(-c2nc(N/N=C/c3c[nH]c4ccccc34)nc(N3CCOCC3)c2C#N)cc1` False

// return assay outcome for Cc1ccc(C2CC(c3cccc(Nc4ccncc4)c3)=NN2c2ccc(Cl)cc2)cc1 (stereo unspecified) True

// return assay outcome for `COc1cccc(/C=C2\COc3ccc(-c4ccccc4)cc3C2=O)c1` True

====

System: LOX IMVI melanoma
Assay Remarks: NCI-60 one-dose screen, 48 h (100 = growth as untreated, 0 = no growth, -100 = all killed)
Particulars: 10 µM unless noted
This is part of a sample that, as a whole, favours compounds with a hit. Of some 83,000 tested, about 20% had one in any assay. The source made the active and inactive calls. The calls were made as follows: active = growth percent below 10; inactive = the rest.
Readout Name: growth

# example entries with known answers
Compound	growth
C#Cc1cccc(NC(=O)Nc2cccc(N=C=S)c2)c1	102% [8.25 µM] (inactive)
Cc1cc(C)c(C=O)c(C)c1	96.8% (inactive)
CCN(CC)CCCCCCNc1cc(OC)cc2cccnc12	-60.4% (active)
O=C1OC(=O)C2C1CC=CC2c1ccccc1 (stereo unspecified)	71.7% (inactive)
O=C(O)/C=C\C(=O)N1C/C(=C\c2ccccc2Cl)C(=O)/C(=C/c2ccccc2Cl)C1	-69.3% (active)

Attention now shifts to the item below.
May I ask what growth has been recorded for OC(c1ccccc1)c1ccccn1 (stereo unspecified) ? 103% (inactive)

====

System: UACC-62 melanoma
Assay Remarks: NCI-60 one-dose screen, 48 h (100 = growth as untreated, 0 = no growth, -100 = all killed)
Particulars: 10 µM unless noted
About 83,000 compounds went through this panel and 20% of them were active in at least one assay; those are over-represented in the sample as a whole.
Reported growth maps to class as: Low (below 50%), Mid (50% to below 90%), High (90% or more)

Before answering, review these 5 worked examples.
Molecule	Cat
CCOC(=O)N1CCc2c(sc3nc4nc[nH]n4c(=O)c23)C1	High
COc1cc(NCCN(CC(C)C)C2CCCC2)c2ncccc2c1	High
CCN(CC)CCOC(COc1cc(C)cc(C)c1)COc1cc(C)cc(C)c1	Low
CCOC(=O)c1ccc(Nc2ccnc(SCC(=O)c3ccc(C#N)cc3)n2)cc1	Low
O=C(Nc1ccccc1)Oc1ccccc1-c1ccccc1	High

Just checking, what class would you give `O=CNc1cc(Cl)cc(Cl)c1` here? High

Just checking, what class would you give `CC(=O)c1c[nH]c2ccc(-c3ccnc(Nc4ccc(NC(=O)c5cccc(F)c5)c(CN5CCOCC5)c4)n3)cc12` here? Low

Just checking, what class would you give CC(=O)OC1CCC2(C)C(CCC3C4CC=C(C(C)=O)C4(C)OC(=O)CC32)C1 (centres undefined) here? Low

Just checking, what class would you give `CCCNC(=O)Oc1ccc(/C(=C(\C)c2ccccc2)c2ccc(OCCN3CCCCC3)cc2)cc1` here? Mid

Just checking, what class would you give `CC1(C)CCCN1CCCN1c2ccccc2Sc2ccc(Cl)cc21` here? Mid

Just checking, what class would you give `C=C(C)[C@@H]1CC[C@]2(C(=O)N3CCN(C)CC3)CC[C@]3(C)[C@H](CC[C@@H]4[C@@]5(C)CCC(=O)C(C)(C)[C@@H]5CC[C@]43C)[C@@H]12` here? High

Just checking, what class would you give CCn1cc(C2NC(=O)c3ccccc3N2)c2cccc(C)c21 (centres undefined) here? Low

Just checking, what class would you give `CCNC(=O)c1[nH]cc(-c2ccc(OC)cc2)c1-c1cc(OC)c(OC)c(OC)c1` here? Low
